measured.target: Protein Kinase A (PKA) (Homo sapiens, UniProt P17612)
value.kind: IC50

IC50 lookup needed for O=C(Nc1cc(-c2ccccc2)[nH]n1)c1ccccc1 [Compound 1, 3-benzoylamino-5-phenylpyrazole] , thanks.
> 40 µM

====

measured.target: UniProt P12931
test: inhibition of recombinant c-src kinase
settings: read-out: IC50 src-kinase; recombinant c-src, 50 μM ATP
value.kind: IC50 (nM)
Note: unit nM is implicit; provide only the numeric part.

IC50 lookup needed for COC(=O)[C@@]1(O)C[C@H]2O[C@]1(C)n1c3ccccc3c3c4c(c5c6ccccc6n2c5c31)C(=O)NC4 [Compound K252a] , thanks.
20

====

Test system: WS1 cells
test: inhibition of cell proliferation under normal tissue culture conditions, WS1
settings: Homo sapiens, WS1, 96 h, read-out: IC50 WS1
value.kind: IC50

IC50 lookup needed for `O=C(Nc1cc(-c2ccccc2)[nH]n1)c1ccccc1` , thanks.
> 30 µM

====

measured.target: src-kinase (Homo sapiens)
Sequence (P12931 whole entry): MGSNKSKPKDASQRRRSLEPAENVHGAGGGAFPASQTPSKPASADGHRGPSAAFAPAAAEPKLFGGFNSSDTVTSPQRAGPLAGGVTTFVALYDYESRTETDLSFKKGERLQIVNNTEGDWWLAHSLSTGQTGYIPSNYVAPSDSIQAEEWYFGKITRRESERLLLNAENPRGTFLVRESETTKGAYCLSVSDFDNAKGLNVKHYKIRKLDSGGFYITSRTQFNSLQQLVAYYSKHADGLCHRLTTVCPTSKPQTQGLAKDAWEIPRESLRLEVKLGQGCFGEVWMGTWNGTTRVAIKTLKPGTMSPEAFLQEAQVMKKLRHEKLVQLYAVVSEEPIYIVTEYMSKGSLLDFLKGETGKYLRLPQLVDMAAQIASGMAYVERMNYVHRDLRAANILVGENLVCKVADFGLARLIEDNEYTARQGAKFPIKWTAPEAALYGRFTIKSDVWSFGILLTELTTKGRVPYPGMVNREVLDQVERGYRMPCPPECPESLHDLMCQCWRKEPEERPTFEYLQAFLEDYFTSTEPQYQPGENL
test: inhibition of recombinant c-src kinase
value.kind: pIC50
pIC50 here: minus log base 10 of the concentration, concentration in moles per litre.

pIC50 lookup needed for `O=C(Nc1cc(-c2ccccc2)[nH]n1)c1ccccc1` , thanks.
5.10

====

Tested on: 32D-αR cells
test: PDGF induced proliferation ([3H]thymidine incorporation) in 32D-αR cells
Assay type: cell-based
settings: Mus musculus, read-out: concentration blocking PDGF induced thymidine incorporation by 50%
Protocol: Briefly, 32D-αR cells were grown in interleukin 3 (IL-3)-conditioned RPMI media with 10% fetal bovine serum and washed 2 times with RPMI with 10% fetal bovine serum, resuspended at 5×10^5 cells/ml in the same media and then dispensed at 250 μl/well in 24 well plates (Falcon). […] The cells are then harvested with an automated cell harvester, filters are placed in liquid scintillation mixture and counted in a β counter.
value.kind: IC50 (nM)
Note: unit nM is implicit; provide only the numeric part.

GET /values?readout=IC50&system=32D-αR cells&item= O=C(Nc1cc(-c2ccccc2)[nH]n1)c1ccccc1 [Compound 1, 3-benzoylamino-5-phenylpyrazole]
700

====

measured.target: human alpha PDGFR (Homo sapiens, UniProt P16234)
Sequence (P16234 24-1089): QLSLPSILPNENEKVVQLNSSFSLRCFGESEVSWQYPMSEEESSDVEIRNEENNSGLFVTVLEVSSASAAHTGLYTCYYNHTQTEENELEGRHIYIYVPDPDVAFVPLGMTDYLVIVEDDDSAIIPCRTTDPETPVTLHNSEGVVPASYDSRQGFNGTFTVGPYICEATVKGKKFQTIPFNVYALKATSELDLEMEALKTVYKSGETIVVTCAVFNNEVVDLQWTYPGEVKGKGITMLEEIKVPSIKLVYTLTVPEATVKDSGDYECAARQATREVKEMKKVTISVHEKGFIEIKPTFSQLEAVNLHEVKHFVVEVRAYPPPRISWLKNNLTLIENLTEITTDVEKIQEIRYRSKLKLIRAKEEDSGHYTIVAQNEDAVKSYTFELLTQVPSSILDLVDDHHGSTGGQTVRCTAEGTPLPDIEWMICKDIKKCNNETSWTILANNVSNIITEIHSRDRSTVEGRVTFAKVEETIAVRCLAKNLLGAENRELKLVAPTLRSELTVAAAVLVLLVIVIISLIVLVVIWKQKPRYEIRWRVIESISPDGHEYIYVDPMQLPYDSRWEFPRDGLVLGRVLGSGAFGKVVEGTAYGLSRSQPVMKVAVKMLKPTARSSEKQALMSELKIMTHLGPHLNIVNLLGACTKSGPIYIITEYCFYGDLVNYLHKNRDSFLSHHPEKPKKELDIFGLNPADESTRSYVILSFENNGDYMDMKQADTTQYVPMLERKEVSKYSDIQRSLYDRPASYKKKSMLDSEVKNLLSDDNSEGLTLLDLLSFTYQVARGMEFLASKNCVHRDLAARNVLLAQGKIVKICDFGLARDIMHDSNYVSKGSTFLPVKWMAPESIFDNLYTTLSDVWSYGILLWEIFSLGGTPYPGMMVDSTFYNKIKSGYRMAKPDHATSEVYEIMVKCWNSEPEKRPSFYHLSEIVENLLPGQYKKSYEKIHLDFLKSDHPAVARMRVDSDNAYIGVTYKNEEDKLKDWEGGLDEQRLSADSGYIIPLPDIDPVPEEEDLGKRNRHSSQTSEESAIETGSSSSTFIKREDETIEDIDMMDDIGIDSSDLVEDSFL
test: alpha PDGFR autophosphorylation in 32D-αR cells
settings: Table 2; autophosphorylation, 32D-αR cells, PDGF AA 15 ng/ml; read-out: IC50 αPDGFR
value.kind: pIC50
pIC50 here: minus log base 10 of the concentration, concentration in moles per litre.

pIC50 lookup needed for `O=C(Nc1cc(-c2ccccc2)[nH]n1)c1ccccc1` , thanks.
6.77

====

measured.target: human beta PDGFR (Homo sapiens)
Sequence (P09619 33-1106): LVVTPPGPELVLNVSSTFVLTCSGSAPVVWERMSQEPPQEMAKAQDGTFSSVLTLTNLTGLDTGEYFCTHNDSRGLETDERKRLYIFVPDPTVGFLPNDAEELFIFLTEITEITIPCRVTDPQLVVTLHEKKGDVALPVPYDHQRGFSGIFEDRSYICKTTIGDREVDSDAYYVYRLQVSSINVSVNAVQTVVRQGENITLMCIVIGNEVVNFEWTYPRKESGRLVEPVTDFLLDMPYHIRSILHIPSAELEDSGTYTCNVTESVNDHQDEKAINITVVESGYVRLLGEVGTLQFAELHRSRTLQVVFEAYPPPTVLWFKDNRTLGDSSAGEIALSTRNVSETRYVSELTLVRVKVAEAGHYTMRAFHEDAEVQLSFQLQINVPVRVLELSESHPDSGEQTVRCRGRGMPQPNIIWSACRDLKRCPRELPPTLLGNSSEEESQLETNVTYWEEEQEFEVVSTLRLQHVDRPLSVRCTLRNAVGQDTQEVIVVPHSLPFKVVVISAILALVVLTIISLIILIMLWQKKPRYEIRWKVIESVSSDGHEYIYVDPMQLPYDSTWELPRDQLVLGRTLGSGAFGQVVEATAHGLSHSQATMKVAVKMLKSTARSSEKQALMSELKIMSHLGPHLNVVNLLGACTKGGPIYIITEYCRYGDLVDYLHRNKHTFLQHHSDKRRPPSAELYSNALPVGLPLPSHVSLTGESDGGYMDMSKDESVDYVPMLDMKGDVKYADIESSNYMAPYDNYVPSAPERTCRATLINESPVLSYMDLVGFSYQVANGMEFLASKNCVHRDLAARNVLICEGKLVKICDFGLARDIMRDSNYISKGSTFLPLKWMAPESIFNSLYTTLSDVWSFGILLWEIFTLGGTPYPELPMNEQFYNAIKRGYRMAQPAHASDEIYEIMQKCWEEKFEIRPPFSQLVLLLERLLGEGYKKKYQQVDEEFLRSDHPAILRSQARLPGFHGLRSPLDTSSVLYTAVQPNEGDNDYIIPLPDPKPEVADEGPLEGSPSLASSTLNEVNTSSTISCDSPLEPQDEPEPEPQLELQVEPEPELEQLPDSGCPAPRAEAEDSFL
test: beta PDGFR autophosphorylation in HR5-βR cells
value.kind: pIC50
pIC50 here: minus log base 10 of the concentration, concentration in moles per litre.

GET /values?readout=pIC50&system=human beta PDGFR (Homo sapiens)&item= `O=C(Nc1cc(-c2ccccc2)[nH]n1)c1ccccc1`
6.66

Taken from patent US5916908A.
